ASSAYED_TARGET: Glutamate NMDA receptor
RUN_DESCRIPTION: Displacement of [3H]CGP from rat synaptosome NMDA receptor after 60 mins by microplate scintillation counter analysis
pKi: −log10 of the molar value.
RECORDED_ENDPOINT: pKi

SMILES_STR	ASSAYED_TARGET	RECORDED_ENDPOINT	MEASURED_VALUE
N[C@@H](C[C@]1(C(=O)O)C[C@H]1C(=O)O)C(=O)O	Glutamate NMDA receptor	pKi	4.89
N[C@@H](C[C@@]1(C(=O)O)C[C@@H]1C(=O)O)C(=O)O	Glutamate NMDA receptor	pKi	4.82

====

ASSAYED_TARGET: Metabotropic glutamate receptor 2 (Rattus norvegicus, UniProt P31421)
Sequence (P31421 whole entry): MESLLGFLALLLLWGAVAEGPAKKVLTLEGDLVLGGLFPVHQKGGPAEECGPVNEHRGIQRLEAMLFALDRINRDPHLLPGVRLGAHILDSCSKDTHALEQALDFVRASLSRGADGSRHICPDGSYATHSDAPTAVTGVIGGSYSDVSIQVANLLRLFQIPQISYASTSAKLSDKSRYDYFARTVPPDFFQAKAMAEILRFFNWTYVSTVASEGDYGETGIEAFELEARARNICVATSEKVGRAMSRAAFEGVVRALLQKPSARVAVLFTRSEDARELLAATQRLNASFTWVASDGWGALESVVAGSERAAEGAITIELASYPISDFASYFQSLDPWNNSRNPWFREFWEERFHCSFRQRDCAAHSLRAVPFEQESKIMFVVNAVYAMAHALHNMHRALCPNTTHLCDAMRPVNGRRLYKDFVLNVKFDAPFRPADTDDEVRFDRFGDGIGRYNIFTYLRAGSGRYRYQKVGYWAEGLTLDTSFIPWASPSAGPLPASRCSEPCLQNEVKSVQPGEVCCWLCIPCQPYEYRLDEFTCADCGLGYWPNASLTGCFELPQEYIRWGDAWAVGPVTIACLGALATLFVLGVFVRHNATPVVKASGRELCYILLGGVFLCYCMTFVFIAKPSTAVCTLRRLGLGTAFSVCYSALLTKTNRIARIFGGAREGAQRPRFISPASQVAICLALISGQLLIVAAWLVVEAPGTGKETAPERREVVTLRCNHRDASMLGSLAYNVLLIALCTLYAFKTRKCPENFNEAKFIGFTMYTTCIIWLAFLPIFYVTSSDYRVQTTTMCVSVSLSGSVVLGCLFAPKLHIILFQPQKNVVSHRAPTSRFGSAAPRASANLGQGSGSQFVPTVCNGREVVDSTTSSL
RUN_DESCRIPTION: Agonist activity at rat mGlu2 receptor expressed in HEK293 cells by [35S]GTP-gamma binding assay
Assay type: cell-based
APPLIED_CONDITIONS: read-out: EC50
pEC50: −log10 of the molar value.
RECORDED_ENDPOINT: pEC50

SMILES_STR	RECORDED_ENDPOINT	MEASURED_VALUE
N#CCC[C@H](C[C@H](N)C(=O)O)C(=O)O	pEC50	< 3.00
CN(O)C(=O)CC[C@H](C[C@H](N)C(=O)O)C(=O)O	pEC50	< 3.00
CCC[C@H](C[C@H](N)C(=O)O)C(=O)O	pEC50	< 3.00

Can you look up the measured pEC50 of `CNC(=O)CC[C@H](C[C@H](N)C(=O)O)C(=O)O` for me?
< 3.00

Which pEC50 reading was recorded for the compound `CC[C@H](C[C@H](N)C(=O)O)C(=O)O` ?
< 3.00

I would be grateful if you could share the reported pEC50 for `NC(=O)CC[C@H](C[C@H](N)C(=O)O)C(=O)O` .
< 3.00

====

RUN_DESCRIPTION: Displacement of [3H]KA from rat synaptosome KA receptor after 60 mins by microplate scintillation counter analysis
pIC50: −log10 of the molar value.
RECORDED_ENDPOINT: pIC50

SMILES_STR	pIC50
N[C@@H](C[C@@]1(C(=O)O)C[C@H]1C(=O)O)C(=O)O	< 4.00
N[C@@H](C[C@@H](CCC(=O)O)C(=O)O)C(=O)O	< 4.00
N[C@@H](C[C@@]1(C(=O)O)C[C@@H]1C(=O)O)C(=O)O	< 4.00
N[C@@H](C[C@]1(C(=O)O)C[C@H]1C(=O)O)C(=O)O	< 4.00

We next turn to a different molecule, shown below.
Could you tell me which pIC50 is on file for `N[C@@H](C[C@]1(C(=O)O)C[C@@H]1C(=O)O)C(=O)O` ?
< 4.00

====

ASSAYED_TARGET: UniProt P31421
RUN_DESCRIPTION: Agonist activity at rat mGlu2 receptor by FRET based mGlu sensor assay
RECORDED_ENDPOINT: EC50 (µM)

COMPOUND	ASSAYED_TARGET	UNITS_SYMBOL	EC50
N[C@@H](C[C@]1(C(=O)O)C[C@@H]1C(=O)O)C(=O)O	UniProt P31421	µM	119

1. N[C@@H](C[C@@H](CCC(=O)O)C(=O)O)C(=O)O
2. N[C@H](C(=O)O)C1[C@@H](C(=O)O)[C@@H]1C(=O)O (stereo partly specified)
Please let me know which one, 1 or 2 , has a lower measured EC50 value. Return value: the label identifying the chosen record.
2
(2: 0.35 µM, 1: 120 µM)
